Where do the numbers come from? From patent US5416222A.

Field: MIC. Provide a value for each of the compounds that follow.

Identify the measured MIC of CNC(C)C1CCN(c2nc3c(cc2F)c(=O)c(C(=O)O)cn3C2CC2)C1 (centres unmarked) [Example 8] for Ps. cepacia, IID1340. 1.56 µg/mL

Entry CCn1cc(C(=O)O)c(=O)c2cc(F)c(N3CCC(C4(N)CC4)C3)c(F)c21 (centres unmarked) [Example 16] , system Ps. cepacia, IID1340: what MIC was measured? 0.78 µg/mL

Request: MIC, test system Ps. cepacia, IID1340, entry CCNCC1CCN(c2c(F)cc3c(=O)c(C(=O)O)cn(CC)c3c2F)C1 (centres unmarked) [Compound C, reference compound] 1.56 µg/mL

API: value(readout=MIC, system=Ps. cepacia, IID1340) for record CCC(N)C1CCN(c2c(F)cc3c(=O)c(C(=O)O)cn(CC)c3c2F)C1 (centres unmarked) [Example 10] 1.56 µg/mL

Record lookup: for Ps. cepacia, IID1340, what MIC belongs to CCC(N)C1CCN(c2c(F)cc3c(=O)c(C(=O)O)cn(C4CC4)c3c2F)C1 (single isomer, unassigned) [Example 21] ? 0.2 µg/mL

Give MIC (Ps. cepacia, IID1340) of the following compound: CC(C)(N)C1CCN(c2c(F)cc3c(=O)c(C(=O)O)cn(C4CC4)c3c2F)C1 (centres unmarked) [Example 11] 0.78 µg/mL

Requested read-out MIC, target or system Ps. cepacia, IID1340, entry CC(C)(N)C1CCN(c2nc3c(cc2F)c(=O)c(C(=O)O)cn3C2CC2)C1 (centres unmarked) [Example 13] 0.78 µg/mL

Hi! What's the reported MIC for CC(N)C1CCN(c2c(F)cc3c(=O)c(C(=O)O)cn(C4CC4)c3c2F)C1 (single isomer, unassigned) [Example 1] on Ps. cepacia, IID1340? 0.78 µg/mL

Query for Ps. cepacia, IID1340: what MIC does the record show for CCn1cc(C(=O)O)c(=O)c2cc(F)c(N3CCC(C(C)(C)N)C3)c(F)c21 (centres unmarked) [Example 12] ? 1.56 µg/mL

Can you look up MIC on Ps. cepacia, IID1340 for CNCC1CCN(c2c(F)cc3c(=O)c(C(=O)O)cn(C4CC4)c3c2F)C1 (centres unmarked) [Compound B, reference compound] ? 1.56 µg/mL

Record lookup: for Ps. cepacia, IID1340, what MIC belongs to CNC(C)C1CCN(c2c(F)cc3c(=O)c(C(=O)O)cn(C4CC4)c3c2F)C1 (single isomer, unassigned) [Example 6] ? 0.78 µg/mL

Form field - read-out: MIC; system: Ps. cepacia, IID1340; submitted item: CCC(N)C1CCN(c2c(F)cc3c(=O)c(C(=O)O)cn(CC)c3c2F)C1 (single isomer, unassigned) [Example 20] 0.39 µg/mL

Quick check: MIC on Ps. cepacia, IID1340, item CCC(N)C1CCN(c2c(F)cc3c(=O)c(C(=O)O)cn(C4CC4)c3c2F)C1 (centres unmarked) [Example 9] ? 0.39 µg/mL

I'm curious: which MIC was measured for CCNCC1CCN(c2c(F)cc3c(=O)c(C(=O)O)cn(C4CC4)c3c2F)C1 (centres unmarked) [Compound A, reference compound] tested on Ps. cepacia, IID1340? 0.78 µg/mL

Short answer please: MIC, Ps. cepacia, IID1340, entry CCn1cc(C(=O)O)c(=O)c2cc(F)c(N3CCC(C(C)N)C3)c(F)c21 (single isomer, unassigned) [Example 3] 1.56 µg/mL

Find MIC (Ps. cepacia, IID1340) for the entry NC1(C2CCN(c3c(F)cc4c(=O)c(C(=O)O)cn(C5CC5)c4c3F)C2)CC1 (centres unmarked) [Example 15] 0.39 µg/mL

Provide value of MIC for this record tested with Ps. cepacia, IID1340: CNC(C)(C)C1CCN(c2c(F)cc3c(=O)c(C(=O)O)cn(C4CC4)c3c2F)C1 (centres unmarked) [Example 14] 1.56 µg/mL

---

# System: Str. pyogenes, G-36
I'd be grateful if you could share measured MIC for these entries.

Look up MIC: CCC(N)C1CCN(c2c(F)cc3c(=O)c(C(=O)O)cn(CC)c3c2F)C1 (single isomer, unassigned) [Example 20] ≤ 0.05 µg/mL

Entry under review: CNC(C)C1CCN(c2nc3c(cc2F)c(=O)c(C(=O)O)cn3C2CC2)C1 (stereo not shown) [Example 8] . Reported MIC? 0.78 µg/mL

Would you mind telling me what MIC value was observed for NC1(C2CCN(c3c(F)cc4c(=O)c(C(=O)O)cn(C5CC5)c4c3F)C2)CC1 (stereo not shown) [Example 15] ? ≤ 0.05 µg/mL

Fill blank: measured MIC of the compound CCNCC1CCN(c2c(F)cc3c(=O)c(C(=O)O)cn(C4CC4)c3c2F)C1 (stereo not shown) [Compound A, reference compound] is ____. 0.1 µg/mL

What value of measured MIC is listed for CC(C)(N)C1CCN(c2nc3c(cc2F)c(=O)c(C(=O)O)cn3C2CC2)C1 (stereo not shown) [Example 13] ? 0.1 µg/mL

Quick one: MIC for CCNCC1CCN(c2c(F)cc3c(=O)c(C(=O)O)cn(CC)c3c2F)C1 (stereo not shown) [Compound C, reference compound] ? 0.78 µg/mL

Returns the measured MIC for the input compound. Input: CNCC1CCN(c2c(F)cc3c(=O)c(C(=O)O)cn(C4CC4)c3c2F)C1 (stereo not shown) [Compound B, reference compound] 0.1 µg/mL

---

# System: Str. pyogenes, G-36
# RUN_DESCRIPTION: antimicrobial activity, MIC, standard process of Japan Society of Chemotherapy
# Type: cell-based
# RECORDED_CONDITIONS: Str. pyogenes
REPORTED_METRIC: minimum growth inhibitory concentration (MIC) (µg/mL)
Write the value in µg/mL as a bare number.

// lookup minimum growth inhibitory concentration (MIC) for CCn1cc(C(=O)O)c(=O)c2cc(F)c(N3CCC(C(C)N)C3)c(F)c21 (single isomer, unassigned) [Example 3] 0.39

Name the recorded minimum growth inhibitory concentration (MIC) for CNC(C)C1CCN(c2c(F)cc3c(=O)c(C(=O)O)cn(C4CC4)c3c2F)C1 (single isomer, unassigned) [Example 6] . 0.20

Dear colleague, I am looking for the recorded minimum growth inhibitory concentration (MIC) of the following compound: CC(N)C1CCN(c2nc3c(cc2F)c(=O)c(C(=O)O)cn3C2CC2)C1 (stereo not drawn) [Example 18] 0.39

Would you kindly share the measured minimum growth inhibitory concentration (MIC) for CCC(N)C1CCN(c2c(F)cc3c(=O)c(C(=O)O)cn(C4CC4)c3c2F)C1 (stereo not drawn) [Example 22] ? 0.20

Entry CC(N)C1CCN(c2nc3c(cc2F)c(=O)c(C(=O)O)cn3C2CC2)C1 (stereo not drawn) [Example 19] : reported minimum growth inhibitory concentration (MIC) = ? 0.20

---

# Test system: Ser. marcescens, 13001
# RUN_DESCRIPTION: antimicrobial activity, MIC, standard process of Japan Society of Chemotherapy
# Type: cell-based
# RECORDED_CONDITIONS: Ser. marcescens
REPORTED_METRIC: minimum growth inhibitory concentration (MIC) (µg/mL)
Enter your answer as a number in µg/mL; do not include the unit.

Fill in the blank: the reported minimum growth inhibitory concentration (MIC) of CCC(N)C1CCN(c2c(F)cc3c(=O)c(C(=O)O)cn(C4CC4)c3c2F)C1 (centres unmarked) is ____. 0.10

Consider the compound CC(N)C1CCN(c2nc3c(cc2F)c(=O)c(C(=O)O)cn3C2CC2)C1 (centres unmarked) [Example 5] and give its measured minimum growth inhibitory concentration (MIC). 0.20

// minimum growth inhibitory concentration (MIC) lookup, key: CC(N)C1CCN(c2nc3c(cc2F)c(=O)c(C(=O)O)cn3C2CC2)C1 (centres unmarked) [Example 18] 0.20

Reported minimum growth inhibitory concentration (MIC) for CCn1cc(C(=O)O)c(=O)c2cc(F)c(N3CCC(C(C)N)C3)c(F)c21 (single isomer, unassigned) : what is it? 0.10

Which value of minimum growth inhibitory concentration (MIC) has been reported for CC(N)C1CCN(c2c(F)cc3c(=O)c(C(=O)O)cn(C4CC4)c3c2F)C1 (single isomer, unassigned) [Example 1] in the records? 0.20

I'd like to know its minimum growth inhibitory concentration (MIC). The compound in question is CNC(C)C1CCN(c2c(F)cc3c(=O)c(C(=O)O)cn(C4CC4)c3c2F)C1 (single isomer, unassigned) 0.10

---

Could you please report measured MIC for the items listed next?
Numbers only; they are read as µg/mL.

# returns recorded MIC (system: Pr. vulgaris, 3167) for CCNCC1CCN(c2c(F)cc3c(=O)c(C(=O)O)cn(C4CC4)c3c2F)C1 (centres unmarked) [Compound A, reference compound] 0.1

Missing value: MIC, Pr. vulgaris, 3167, entry CNC(C)(C)C1CCN(c2c(F)cc3c(=O)c(C(=O)O)cn(C4CC4)c3c2F)C1 (centres unmarked) [Example 14] . Fill in? 0.2

# query: MIC | item CNC(C)C1CCN(c2c(F)cc3c(=O)c(C(=O)O)cn(C4CC4)c3c2F)C1 (single isomer, unassigned) [Example 6] | system: Pr. vulgaris, 3167 0.1

Kindly state the measured MIC obtained for CCNCC1CCN(c2c(F)cc3c(=O)c(C(=O)O)cn(CC)c3c2F)C1 (centres unmarked) [Compound C, reference compound] with Pr. vulgaris, 3167. 0.2

Query the reported MIC for Pr. vulgaris, 3167; item: CCC(N)C1CCN(c2c(F)cc3c(=O)c(C(=O)O)cn(CC)c3c2F)C1 (centres unmarked) [Example 10] 0.1

Lab note: need MIC with Pr. vulgaris, 3167 for entry NC1(C2CCN(c3c(F)cc4c(=O)c(C(=O)O)cn(C5CC5)c4c3F)C2)CC1 (centres unmarked) [Example 15] , please look it up. 0.1

Param readout= MIC; system= Pr. vulgaris, 3167; entry= CCn1cc(C(=O)O)c(=O)c2cc(F)c(N3CCC(C(C)(C)N)C3)c(F)c21 (centres unmarked) [Example 12] ; returns value. 0.2

For Pr. vulgaris, 3167, provide MIC of CCn1cc(C(=O)O)c(=O)c2cc(F)c(N3CCC(C4(N)CC4)C3)c(F)c21 (centres unmarked) [Example 16] please. 0.2

Request body: readout MIC, system Pr. vulgaris, 3167, query CC(N)C1CCN(c2nc3c(cc2F)c(=O)c(C(=O)O)cn3C2CC2)C1 (centres unmarked) [Example 5] . Return the value. 0.05

Report MIC for CC(C)(N)C1CCN(c2nc3c(cc2F)c(=O)c(C(=O)O)cn3C2CC2)C1 (centres unmarked) [Example 13] tested on Pr. vulgaris, 3167. 0.1

Request body: readout MIC, system Pr. vulgaris, 3167, query CNC(C)C1CCN(c2nc3c(cc2F)c(=O)c(C(=O)O)cn3C2CC2)C1 (centres unmarked) [Example 8] . Return the value. 0.1

Record CC(N)C1CCN(c2c(F)cc3c(=O)c(C(=O)O)cn(C4CC4)c3c2F)C1 (single isomer, unassigned) [Example 1] : what is its MIC with Pr. vulgaris, 3167? 0.1
